assay-text: qHTS assay to identify small molecule agonists of the hypoxia (HIF-1) signaling pathway - cell viability counter screen (AID 1224844); further: nearly all actives have a fitted effect of over 50% in size
applied-conditions: HRE-bla ME-180 viability, CellTiter-Glo luminescence, 17 h; series mostly up to 76.8 µM
Results filed as inconclusive are left out. The source made the active and inactive calls. The call rests on the fitted dose curve.
Outcomes you can answer with include only these: active, inactive

Observe how each entry below is paired with its result.
NC1(c2ccc(-c3nc4ccn5c(=O)[nH]nc5c4cc3-c3ccccc3)cc2)CCC1	active
CC(=O)C=O	inactive
CC(=O)OC1CCCCC1	inactive
O=C(O)c1cccc(Cl)n1	inactive
CN1CN(C)CN(C)C1	inactive

API: the following record is the query input.
Prompt: # lookup: test call for Cc1cc(C)c(C=O)c(C)c1
Response: inactive
